- System: normal human cells (Wi-38)
- assay-comment: MTT cytotoxicity screening on normal human cells
- Assay type: cell-based
- applied-conditions: Wi-38 normal human lung fibroblasts, MTT, 72 h; mean ± SEM
Cut-off 9 µM on EC100 (safe concentration at 100% cell viability): below means YES, at or above means NO.

Solved entries:
> print(dat)
                                 cpd.smiles                   tested.on  group.label
1  CCOC(=O)CN1C(=O)SC(=Cc2ccc([N+](=O)[O-])cc2)C1=O  normal human cells (Wi-38)          YES
2             O=C1SC(=Cc2ccccc2)C(=O)N1CCCO  normal human cells (Wi-38)           NO
3  COc1cccc2c1C(=O)c1c(O)c3c(c(O)c1C2=O)C[C@@](O)(C(=O)CO)C[C@@H]3O[C@H]1C[C@H](N)[C@H](O)[C@H](C)O1  normal human cells (Wi-38)          YES
4  CCOC(=O)COc1ccc(C=C2SC(=O)N(CC(=O)OCC)C2=O)cc1  normal human cells (Wi-38)          YES
5      CN(C)c1ccc(C=C2SC(=O)N(CCCO)C2=O)cc1  normal human cells (Wi-38)           NO
6            O=C1SC(=Cc2ccccc2)C(=O)N1CCCBr  normal human cells (Wi-38)           NO
7  C=CCN1C(=O)SC(=Cc2ccc([N+](=O)[O-])cc2)C1=O  normal human cells (Wi-38)          YES
8         C=CCN1C(=O)SC(=Cc2cccc(Cl)c2)C1=O  normal human cells (Wi-38)           NO

From here, focus on the item given below.
Is EC100 (safe concentration at 100% cell viability) of O=C1NC(=O)C(=Cc2ccc([N+](=O)[O-])cc2)S1 strictly below 9 µM?
YES
